Target: Sodium-dependent dopamine transporter (Homo sapiens)
Details: Compound concentration 10 µM
Description: PDSP Primary Binding target: SLC6A3 - Compounds are tested at 10 uM concentration, plate are incubated at room temperature in the dark for 90 minutes. Reaction are stopped by vacuum filtration onto 0.3% polyethyleneimine soaked filter mats using Filtermate harvester. Scintilation cocktail is then melted onto microwave-dried filters on a hot plate and the radio activity is counted in Microbia counter.
Reported Metric: inhibition (%)
Kindly answer with a numeric value in %, unit omitted.

Cc1cn2cc(CC(=O)N3CCC4(CC3)CN(Cc3ccc(-n5nccn5)cc3Cl)C4)nc2s1 : 44.2
CNc1nc(NCc2ccc(NS(C)(=O)=O)cc2Cl)cc(-c2ccccn2)n1 : 47.6
Cc1cc(C)cc(C(=O)N(C)[C@H](Cc2ccc(-c3ccccc3)cc2)C(=O)N[C@@H](Cc2c[nH]c3ccccc23)C(=O)O)c1 : 32.2

## Task Form entry - test system: Sodium-dependent dopamine transporter (Homo sapiens); read-out: inhibition; molecule: Clc1cccc(COc2cncc(N3CCNCC3)n2)c1
## Result 33.5

## Task Checklist item: inhibition tested on Sodium-dependent dopamine transporter (Homo sapiens), entry Cc1ccccc1C(=O)Nc1ccc(C(=O)N2CCCC(O)c3cc(Cl)ccc32)c(C)c1 (configuration not stated) , value?
## Result 21.9

## Task What reported inhibition corresponds to COc1cccc([C@@H](C)NCCCc2ccccc2Cl)c1 on Sodium-dependent dopamine transporter (Homo sapiens)?
## Result 31.1

## Task Recorded inhibition for CCCCN(CC)c1nc(C)nc2c1c(C)cn2-c1c(C)cc(C)cc1C with Sodium-dependent dopamine transporter (Homo sapiens), please?
## Result 36

## Task Lab request: please report inhibition under test system Sodium-dependent dopamine transporter (Homo sapiens) for Cc1nc(C#Cc2ccnc(Cl)c2)c(C)n1-c1ccc(OC(F)(F)F)cc1
## Result 8

## Task # returns recorded inhibition (system: Sodium-dependent dopamine transporter (Homo sapiens)) for CCc1ccc(OCc2ccccc2C(=O)Nc2ccc3nc(C)cc(N)c3c2)cc1
## Result 68.4

## Task Query for Sodium-dependent dopamine transporter (Homo sapiens): what inhibition does the record show for CN1C2CCC1CC(OC(c1ccc(F)cc1)c1ccc(F)cc1)C2 (configuration not stated) ?
## Result 96.9

## Task Please tell me: inhibition of CCCCCNC(=O)NS(=O)(=O)c1cc([N+](=O)[O-])ccc1NC1CCCCC1 , system Sodium-dependent dopamine transporter (Homo sapiens)?
## Result 26.3

## Task Lab note: need inhibition for Cc1cc(C)c(N)c(C#Cc2cccc(F)c2)n1 on Sodium-dependent dopamine transporter (Homo sapiens), anyone have it?
## Result 9.26

## Task Provide the documented inhibition with Sodium-dependent dopamine transporter (Homo sapiens) as the system for Cc1nc(-c2ccc(C(F)(F)F)cc2)sc1COc1ccc([C@H](CC(=O)O)c2ccon2)cc1
## Result 51.1

## Task Requested read-out inhibition, target or system Sodium-dependent dopamine transporter (Homo sapiens), entry Cc1ccc(O)c([C@H](CCN(C(C)C)C(C)C)c2ccccc2)c1
## Result 16.2

## Task What measured inhibition is associated with COc1ccc2[nH]cc(CCNC(C)=O)c2c1 on Sodium-dependent dopamine transporter (Homo sapiens)?
## Result 29.5

## Task Provide the documented inhibition with Sodium-dependent dopamine transporter (Homo sapiens) as the system for Cc1cccc(NC(=O)N[C@@H]2N=C(c3ccccc3)c3ccccc3N(C)C2=O)c1
## Result 44.1

## Task Give Sodium-dependent dopamine transporter (Homo sapiens) inhibition for CCCSc1nc(N[C@@H]2C[C@H]2c2ccc(F)c(F)c2)c2nnn([C@@H]3C[C@H](OCCO)[C@@H](O)[C@H]3O)c2n1
## Result 75.8

## Task For the record Cc1c(P(=S)(c2ccccc2)c2ccccc2)n2ccccc2[n+]1C/C=C/c1ccccc1 , what value of inhibition is listed for Sodium-dependent dopamine transporter (Homo sapiens)?
## Result 83.2

## Task Field: inhibition (Sodium-dependent dopamine transporter (Homo sapiens)). Entry: C[C@@H](NCCc1ccc(O)cc1)[C@@H](O)c1ccc(O)cc1 (relative stereo)
## Result 39.6

## Task API: value(readout= inhibition, system= Sodium-dependent dopamine transporter (Homo sapiens), query= CC(C)C[C@H](NC(=O)N1CCCCCC1)C(=O)N[C@H](Cc1cn(C)c2ccccc12)C(=O)N[C@H](Cc1ccccn1)C(=O)O )
## Result -1.54

## Task Quick check: inhibition on Sodium-dependent dopamine transporter (Homo sapiens), item N#Cc1c[nH]c2c(C(=O)N3CCN(CCc4ccc(F)cc4)CC3)cccc12 ?
## Result 36.2

## Task Tell me reported inhibition for CCCCCNC(=N)N/N=C/c1c[nH]c2ccc(OC)cc12 , tested with Sodium-dependent dopamine transporter (Homo sapiens).
## Result 69.1

----------
Target: 5-hydroxytryptamine receptor 1D (Homo sapiens)
Conditions: Compound concentration 10 µM
Description: PDSP Primary Binding target: HTR1D - Compounds are tested at 10 uM concentration, plate are incubated at room temperature in the dark for 90 minutes. Reaction are stopped by vacuum filtration onto 0.3% polyethyleneimine soaked filter mats using Filtermate harvester. Scintilation cocktail is then melted onto microwave-dried filters on a hot plate and the radio activity is counted in Microbia counter.
Reported Metric: inhibition (%)
Give the value, in units of %, as a plain number.

Some compounds with recorded inhibition:
FC(F)(F)c1cccc(-c2noc(-c3cc(-c4ccccc4)c(C(F)(F)F)s3)n2)c1 : -9.1
Cc1nn(C)c(C)c1-c1cccc2c1CC[C@H](N(C)C)C2 : 95.6
CCCCCCCCCCCCC/C=C/[C@@H](O)[C@@H](N)COP(=O)(O)O : 63.5
CC(C)NCC(O)COc1cccc2ccccc12 (configuration not stated) : 87.2
CNc1nc(NCc2ccc(NS(C)(=O)=O)cc2Cl)cc(-c2ccccn2)n1 : 0.67

## Task What does the data say about its inhibition? Entry: CCCCC#Cc1nc(NC)c2ncn([C@@H]3O[C@H](CO)[C@@H](O)[C@H]3O)c2n1
## Result 8.46

## Task Look up inhibition for this compound: Cc1c(P(=S)(c2ccccc2)c2ccccc2)n2ccccc2[n+]1C/C=C/c1ccccc1
## Result 40.5

## Task inhibition for Nc1nc2c(c(N3CCNCC3)n1)CCC1=C2[C@@H]2CCCC[C@@H]2O1 ?
## Result 10

## Task // returns reported inhibition for input Cc1cccc([C@H](C)c2c[nH]cn2)c1C
## Result 145

## Task I would be grateful if you could share the reported inhibition for CNC[C@H](O)c1ccc(O)c(O)c1 .
## Result 15.8

## Task Please report the recorded inhibition for Cc1ccccc1N1CCN(S(=O)(=O)C[C@]23CC[C@H](C[C@@H]2NC(=O)[C@@H](N)CCS(C)(=O)=O)C3(C)C)CC1 .
## Result -2.54

## Task Which inhibition is listed for CCOC(=O)c1c(C)[nH]c2ccc3c(c12)CN1CCc2cc(OC)ccc2C1O3 (configuration not stated) ?
## Result 14.9

----------
Target: Kappa-type opioid receptor (Homo sapiens)
Details: Compound concentration 10 µM; call rule not given here
Classes to choose from: class 1 (active), class 0 (inactive)

Worked examples, 3 compounds total:
NCCc1cn(S(=O)(=O)c2c(Cl)nc3sccn23)c2ccccc12 : class 0
O=S1(=O)c2cccc3cccc(c23)N1CCCN1CCN(c2ccc(F)cc2)CC1 : class 1
O=C(c1cc2c(cc1F)OC(c1ccc(F)cc1)(c1ccc(Cl)cc1Cl)O2)N1CCOCC1 (centres undefined) : class 1

## Task Returns: the outcome recorded for NC[C@H](O)c1ccc(O)c(O)c1 in this assay.
## Result class 0

## Task In this assay, the call recorded for O=C1O[C@]2(CC[C@H](C(=O)Nc3ccn(-c4ccccc4F)n3)CC2)c2cnccc21 was what?
## Result class 0

## Task Hi, sorry to bother you, what did the test record for Clc1cccc(COc2cncc(N3CCNCC3)n2)c1 ?
## Result class 0

## Task GET /call?item= O=C(O)C1CN(Cc2ccc(-c3nc4cc(Cc5ccccc5F)ccc4s3)c(F)c2)C1 returns the recorded outcome of this test.
## Result class 0

## Task Recorded test call requested for CN(C)C(=O)N[C@H]1CC[C@H](CCN2CCN(c3cccc(Cl)c3Cl)CC2)CC1
## Result class 0

## Task In this assay, the call recorded for CN1C[C@H](C(=O)N[C@]2(C)O[C@@]3(O)[C@@H]4CCCN4C(=O)[C@H](Cc4ccccc4)N3C2=O)C[C@@H]2c3cccc4[nH]cc(c34)C[C@H]21 was what?
## Result class 0

----------
Readings of inhibition for the listed compounds
Target: Beta-2 adrenergic receptor (Homo sapiens) (UniProt P07550)
Sequence (P07550 whole entry, looked up): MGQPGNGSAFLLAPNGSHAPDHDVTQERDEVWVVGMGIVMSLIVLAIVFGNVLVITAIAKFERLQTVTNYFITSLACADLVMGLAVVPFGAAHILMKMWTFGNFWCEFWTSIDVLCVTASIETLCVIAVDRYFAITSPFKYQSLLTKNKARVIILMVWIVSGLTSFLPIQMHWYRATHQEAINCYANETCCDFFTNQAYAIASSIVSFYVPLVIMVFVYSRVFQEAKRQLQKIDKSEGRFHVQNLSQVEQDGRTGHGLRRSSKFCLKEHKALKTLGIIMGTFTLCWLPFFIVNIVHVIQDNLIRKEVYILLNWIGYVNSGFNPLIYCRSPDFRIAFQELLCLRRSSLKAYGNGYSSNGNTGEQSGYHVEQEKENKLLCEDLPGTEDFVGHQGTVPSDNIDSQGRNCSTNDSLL
Conditions: Compound concentration 10 µM
Description: PDSP Primary Binding target: ADRB2 - Compounds are tested at 10 uM concentration, plate are incubated at room temperature in the dark for 90 minutes. Reaction are stopped by vacuum filtration onto 0.3% polyethyleneimine soaked filter mats using Filtermate harvester. Scintilation cocktail is then melted onto microwave-dried filters on a hot plate and the radio activity is counted in Microbia counter.

The following compounds have reported results that may help.
COc1ccc(Br)cc1S(=O)(=O)NC(=O)/C=C/c1ccccc1Cc1ccc2ccccc2c1 : -2.54%
COc1ccc(S(=O)(=O)c2cc(OC)ccc2S(=O)(=O)c2ccc([C@H](C)NS(C)(=O)=O)cc2)cc1 : -1.6%
COc1cccc([C@@H](C)NCCCc2ccccc2Cl)c1 : -2.01%
CNC[C@H](O)c1cccc(O)c1 : -1.97%
CC1CCN(CC[C@H]2CCCN2S(=O)(=O)c2cccc(O)c2)CC1 : -9.8%
COc1cccc([C@H](O)C2CCN(CCc3ccc(F)cc3)CC2)c1OC : 5.48%
C[C@@H](N)Cc1c[nH]cn1 : 10.2%
O=c1ccn([C@@H]2O[C@H](COP(=O)(O)OP(=O)(O)O)[C@@H](O)[C@H]2O)c(=O)[nH]1 : -0.48%
COc1ccc(NC(=O)c2ccc(-c3ccc(-c4noc(C)n4)cc3C)cc2)cc1OCCN(C)C : 13.1%

## Task // lookup inhibition for Nc1nc(NCCc2ccc(O)cc2)nc2nc(-c3ccco3)nn12
## Result -3.4%
